Test system: Micrococcus luteus
test: Antibacterial activity against Micrococcus luteus ATCC 21881 after 24 to 48 hrs by twofold serial dilution method
Type: functional
Entries and their measured MIC follow.
Form entry: value (mg/L) — number only.

Worked set:
# molecule, MIC [mg/L]
measured = [
    ("O=C(COC(Cn1nnnc1Cc1ccccc1)c1ccc(Cl)cc1)N/N=C/c1ccc(Cl)cc1 (stereo unspecified)", 100),
    ("Sc1nnc(COC(Cn2nnc(-c3ccccc3)n2)c2ccc(Cl)cc2)o1 (stereo unspecified)", 50),
    ("Cc1cc(C)n(C(=O)COC(Cn2nnnc2Cc2ccccc2)c2ccc(Cl)cc2)n1 (stereo unspecified)", 50),
    ("O=C(COC(Cn1nnc(-c2ccccc2)n1)c1ccc(Cl)cc1)N/N=C/c1ccc(Cl)cc1 (stereo unspecified)", 100),
    ("CC1(C)S[C@@H]2[C@H](NC(=O)[C@H](N)c3ccccc3)C(=O)N2[C@H]1C(=O)O.O.O.O [AMPICILLIN TRIHYDRATE]", 12.5),
    ("Clc1ccc(C(Cn2nnc(-c3ccccc3)n2)OCc2nnc(Nc3ccccc3)o2)cc1 (stereo unspecified)", 100),
]

Provide value of MIC for this record tested with Micrococcus luteus: Sc1nnc(COC(Cn2nnc(-c3ccccc3)n2)c2ccc(Cl)cc2)n1-c1ccc(Cl)cc1 (stereo unspecified)
100

Then what about the molecule O=C(COC(Cn1nnnc1Cc1ccccc1)c1ccc(Cl)cc1)NNC(=S)Nc1ccccc1 (stereo unspecified) ?
100

Another molecule to look at: Sc1nnc(COC(Cn2nnnc2Cc2ccccc2)c2ccc(Cl)cc2)n1-c1ccc(Cl)cc1 (stereo unspecified)
100
